Reference source: PubChem BioAssay (NCI)

TGI values, listed per item
tested on: CCRF-CEM leukemia; assay: NCI tumour cell line growth inhibition, 48 h

# example entries with known answers
[[record]]
molecule = "C=CC(=O)Nc1cc(C)ccc1Nc1nc(Nc2cc(OC)ncc2C)ncc1C(F)(F)F"
result = "> 100 µM"

[[record]]
molecule = "O=c1[nH]nc(Cc2c[nH]c3ccccc23)o1"
result = "> 100 µM"

[[record]]
molecule = "CN(Cc1ccccc1)c1ccc(CO)c(Cl)c1"
result = "> 100 µM"

[[record]]
molecule = "COc1cc(N(C)C)c(OC)cc1/C=C\\c1ccnc2ccccc12"
result = "9.41 µM"

[[record]]
molecule = "CCOC(=O)C1(C(=O)OCC)OC(C)=NC1(C(=O)OC)C(=O)OC"
result = "> 100 µM"

[[record]]
molecule = "C[As](C)SCC(COC(=O)C(Cl)c1ccccc1)OC(=O)C(Cl)c1ccccc1 (stereo unspecified)"
result = "2.14 µM"


Please indicate TGI recorded for O=[P+](O)c1ccsc1
> 100 µM

Please indicate TGI recorded for COc1ccc(Cc2nnc(Nc3ccc(Br)cc3)[nH]c2=O)cc1OC
> 100 µM

Please indicate TGI recorded for COc1cc(NCCCN=C(N)NC(N)=NC(C)C)c2ncccc2c1
45.7 µM

Please indicate TGI recorded for COC1C(O)C(n2ncc3c(SC)nc(SC)nc32)OC1C(O)CO (stereo unspecified)
> 100 µM

Please indicate TGI recorded for CC(=O)OCC1OC(n2c(-c3ccccc3)c(C(C)=O)c(-c3cccc4ccccc34)c(C#N)c2=S)C(OC(C)=O)C(OC(C)=O)C1OC(C)=O (stereo unspecified)
> 100 µM

* * *

test system: NCI/ADR-RES ovarian; assay: NCI tumour cell line growth inhibition, 48 h; in the data active = GI50 below about 0.43 µM; inactive = the rest
Outcomes you can answer with include only these: active, inactive

Please review the entries below; each comes with its answer.
[[record]]
molecule = "COc1ccc2c(=O)cc(C(Cl)(Cl)Cl)oc2c1"
system = "NCI/ADR-RES ovarian"
group = "active"

[[record]]
molecule = "CCN(CC)CCCNCc1cc(-c2ccccc2)nc2ccccc12"
system = "NCI/ADR-RES ovarian"
group = "inactive"

[[record]]
molecule = "Cc1nnc(-c2cccc(-c3ccc(C(=O)NCC4CC4)cc3)c2)o1"
system = "NCI/ADR-RES ovarian"
group = "inactive"

[[record]]
molecule = "CN(Cc1ccccc1)c1ccc(CO)c(Cl)c1"
system = "NCI/ADR-RES ovarian"
group = "inactive"

[[record]]
molecule = "Cn1c2c(c3ccc([N+](=O)[O-])cc3c1=O)C(=O)c1ccccc1-2"
system = "NCI/ADR-RES ovarian"
group = "inactive"

[[record]]
molecule = "CS(=O)(=O)CCc1cccc(C(=O)c2cnn(-c3ccc(F)cc3)c2N)c1"
system = "NCI/ADR-RES ovarian"
group = "inactive"


// param item: C[C@@]12CCC[C@@](C)(C(=O)O)C1CC[C@]13C[C@@](O)(CO)[C@](O)(CCC12)C3 (stereo partly drawn) ; yields the recorded call
inactive

* * *

test system: UACC-62 melanoma; assay: NCI tumour cell line growth inhibition, 48 h; in the data active means GI50 below about 0.43 µM; inactive means the rest
Outcomes you can answer with include only these: active, inactive

[[record]]
compound = "COCc1cc(C(=O)Nc2cc([C@H]3CC[C@@H](OC(=O)NC(C)C)C3)[nH]n2)n(C)n1"
group = "inactive"

[[record]]
compound = "O=C(c1ccccc1)C(CN1CCCCC1)c1ccccc1 (stereo not given)"
group = "inactive"

[[record]]
compound = "O=c1cc(-c2cccc3c2Sc2ccccc2S3)oc(N2CCOCC2)c1"
group = "inactive"

[[record]]
compound = "COc1cc(NCCCN=C(N)NC(N)=NC(C)C)c2ncccc2c1"
group = "inactive"

[[record]]
compound = "CO/N=C(\\C)c1ccc(Nc2cc(-c3ccccc3)nc3ccc(OC)cc23)cc1"
group = "inactive"


// param item: C=CC(=O)Nc1cc(C)ccc1Nc1nc(Nc2cc(OC)ncc2C)ncc1C(F)(F)F ; yields the recorded call
active

// param item: O=C(Nc1ccncc1)C(=O)c1cn(S(=O)(=O)c2ccc(Cl)cc2)c2ccccc12 ; yields the recorded call
inactive

// param item: N=c1ccn(O)cc1/C=C1/C(=O)Nc2ccccc21 ; yields the recorded call
inactive

// param item: Cc1csc(/C=C/C(=O)c2nnn(-c3ccnc4c(C(F)(F)F)cccc34)c2C)c1 ; yields the recorded call
inactive

// param item: c1ccc(CN2COc3c(ccc4c3OCN(Cc3ccccc3)C4)C2)cc1 ; yields the recorded call
inactive
